The measured values listed here are drawn from PubChem BioAssay AID1745844.

Tested on: rodent lifetime carcinogenesis bioassay, tumor incidence TD50
Assay: carcinogenic potency in animals, long-term in vivo studies, CPDB compilation (AID 1745844)
Conditions: mouse; strain B6C3F1; males; i.p.; site: all sites; lesion: squamous-cell carcinoma; dosed 52 weeks; study length 83 weeks

- compound-smiles: "S=P(N1CC1)(N1CC1)N1CC1"
  TD50: "0.102 mg/kg/day"

* * *

System: rodent lifetime carcinogenesis bioassay, tumor incidence TD50
Assay: carcinogenic potency in animals, long-term in vivo studies, CPDB compilation (AID 1745844)
Conditions: mouse; strain Charles River CD1; males; in drinking water; site: liver; lesion: several types; types named in the paper; dosed 52 weeks; study length 52 weeks
quantity-measured: TD50 (mg/kg/day)

- compound-smiles: "CN(C)N"
  study-target: "rodent lifetime carcinogenesis bioassay, tumor incidence TD50"
  observed-result: "6.28e+06"
